Test system: Streptococcus pyogenes
Experiment: Antibacterial activity against Streptococcus pyogenes by CLSI M100-S17 method
Type: functional
Items are presented alongside their recorded MIC90.

* CC1(C)S[C@@H]2[C@H](NC(=O)Cc3ccccc3)C(=O)N2[C@H]1C(=O)O | ≤ 0.03 µg/mL

Query: // fetch Streptococcus pyogenes MIC90 for `CN[C@H](CC(C)C)C(=O)N[C@H]1C(=O)N[C@@H](CC(N)=O)C(=O)N[C@H]2C(=O)N[C@H]3C(=O)N[C@H](C(=O)N[C@H](C(=O)O)c4cc(O)cc(O)c4-c4cc3ccc4O)[C@H](O)c3ccc(c(Cl)c3)Oc3cc2cc(c3O[C@@H]2O[C@H](CO)[C@@H](O)[C@H](O)[C@H]2O[C@H]2C[C@](C)(N)[C@H](O)[C@H](C)O2)Oc2ccc(cc2Cl)[C@H]1O`
Reply: 0.5 µg/mL

Query: Here is the next molecule: `CC(=O)NC[C@H]1CN(c2ccc(N3CCOCC3)c(F)c2)C(=O)O1`
Reply: 1 µg/mL

Query: Query `Cc1c(CN(C)C(=O)/C=C/c2cnc3c(c2)CCC(=O)N3)oc2ccccc12` next
Reply: > 4 µg/mL
